system: intestinal alkaline phosphatase [Mus musculus]; test: mouse intestinal phosphatase enzyme activation – biochemical, luminescence, uHTS, primary screen (AID 2805); conditions: muIAP, CDP-Star luminescence, 30 min; at 10 µM; stronger effect = higher value; 1 = vehicle-only enzyme signal, 0 = enzyme-free wells
In all, about 330,000 compounds went through this assay and about 780 (0.24%) were called active. For the sample, actives were picked, then their nearest neighbours and some compounds at random.
A collection of molecules and their measured activation factor

MOLECULE	activation factor
C[C@@H](O)c1nc2ccccc2n1N	0.944
Cc1cc(=O)[nH]c(Nc2cccc(Br)c2)n1	1.07
O=C(Nc1cnn(Cc2ccc(Cl)cc2)c1)C1CCCC1	0.956
Cc1cccc(NC(=S)NCc2ccc3[nH]c4c(c3c2)CCCC4)c1	2.55
O=C(Nc1cccc(-c2cccc(Cl)c2)c1)C1CCN(C2CCC2)CC1	6.17
Nc1nnc(SCC(=O)NC2CCCc3ccccc32)s1 (stereo not drawn)	1
O=C(Nc1cccc(-c2cscn2)c1)C1CCN(Cc2ccsc2)CC1	1.47
CCn1cc(CN2CCC(C(=O)Nc3cccc(-c4cccc(Cl)c4)c3)CC2)cn1	5.15
CN(c1cccc(NC(=O)Nc2ccc(Cl)cc2)c1)S(C)(=O)=O	2.3
CN(c1cccc(NC(=O)c2ccc(CN3CCc4ccccc4C3)cc2)c1)S(C)(=O)=O	1.06
Cc1cc(Nc2ccc(Br)cc2F)n2ncnc2n1	0.862
Cc1ccc(NC(=O)Nc2cc(-c3ccccc3)nn2C)cc1Cl	1.48
COc1cc(NC(=O)Nc2ccc(C)cc2)cc([N+](=O)[O-])c1	0.983
CC(=O)c1cc(CN2CCC(C(=O)Nc3cccc(-c4cscn4)c3)CC2)cs1	1.08
O=C(NC1CCCC1)C1CCN(C(=O)Nc2cccc(Cl)c2)CC1	1.03
Cc1ccc(C(=O)c2coc3ccc(O)c(CN(C)C)c23)cc1	1.09
COC(=O)c1ccc(NC(=O)Nc2ccc(C)cc2)cc1	2.13
O=C(NCC1COc2ccccc2O1)C1(c2ccccc2)CCCC1 (stereo not drawn)	1
CN(Cc1ccccc1)C(=O)COC(=O)/C=C/c1ccc2c(c1)OCO2	0.965
CCn1cc(CN2CCC(n3nccc3NC(=O)CCCc3ccccc3)CC2)c(C)n1	1.22
CCc1cccc(CC)c1NC(=S)NCc1ccc2[nH]c(C)cc2c1	1.06
Cc1cc(NC(=O)Nc2ccc(Cl)cc2)n(-c2ccccc2)n1	2.3
COc1cccc(-c2cccc(NC(=O)C3CCN(C4CCC4)CC3)c2)c1	1.01

====

test system: intestinal alkaline phosphatase [Mus musculus]; assay: mouse intestinal phosphatase enzyme activation – biochemical, luminescence, uHTS, primary screen (AID 2805); conditions: muIAP, CDP-Star luminescence, 30 min; at 10 µM; 1 = vehicle-only enzyme signal, 0 = enzyme-free wells
Among all 330,000 compounds or so, about 780 (0.24%) were called active.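 How the source made its calls: active means activation factor of at least 2 at 20 µM; inactive means the rest.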 The entries come from a sample that favours actives as a whole.
Possible outcomes: Y for active, N for inactive

COMPOUND	CATEGORY
CC(NC(=S)Nc1ccc(S(N)(=O)=O)cc1)c1ccc2c(c1)OCO2 (configuration not stated)	N
Cc1ccc(NC(=O)Nc2ccccc2)c(Br)c1	N
COC(=O)c1scc(S(=O)(=O)C(C)(C)C)c1-n1cccc1	N
O=C(NCc1ccccn1)Nc1ccc(Cl)cc1	N
CC(C(=O)O)N1C(=O)c2cccc3cccc1c23 (configuration not stated)	N
Cn1cccc1C(C#N)c1ccccc1C#N (configuration not stated)	N
O=C(CSc1cccc[n+]1[O-])NCCCc1ccccc1	N
CN(CC(=O)N1CCN(c2ccccc2)CC1)S(=O)(=O)c1cccs1	N
Cc1ccoc1C(=O)Nc1cccc(Oc2ccccc2)c1	N
COc1ccc(NC(=O)c2cn(-c3ccccc3)nc2SC)cc1	Y
COc1ccc(-c2nn(-c3ccccc3)cc2C(=O)Nc2nccs2)cc1OC	N
O=C(Nc1ccccc1)Nc1nnc(COc2ccccc2F)s1	N
